Measured Relative binding activity by item
Study System: T1, recombinant human soluble gpNMB (recombinant human gpNMB-FLAG-His) (human, UniProt Q14956 23-498)
T1 sequence: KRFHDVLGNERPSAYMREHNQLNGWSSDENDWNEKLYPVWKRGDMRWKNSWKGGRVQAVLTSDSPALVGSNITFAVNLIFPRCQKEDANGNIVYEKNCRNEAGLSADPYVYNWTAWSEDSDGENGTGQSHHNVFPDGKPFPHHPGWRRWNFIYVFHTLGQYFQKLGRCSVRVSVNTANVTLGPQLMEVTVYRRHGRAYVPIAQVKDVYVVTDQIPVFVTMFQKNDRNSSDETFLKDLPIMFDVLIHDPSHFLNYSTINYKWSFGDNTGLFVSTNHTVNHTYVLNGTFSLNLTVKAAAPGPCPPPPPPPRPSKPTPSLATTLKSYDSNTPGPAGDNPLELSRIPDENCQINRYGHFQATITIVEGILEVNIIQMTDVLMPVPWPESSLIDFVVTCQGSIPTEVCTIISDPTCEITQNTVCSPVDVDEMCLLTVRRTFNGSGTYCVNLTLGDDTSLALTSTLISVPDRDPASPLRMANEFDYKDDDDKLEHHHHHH
Run Description: antigen ELISA, vs hGPN18-2_H2L3
Answer with a bare number; do not write a unit.

Example entries and their recorded answers appear below.
1) hGPN18-2_H2L3 VL S26A (antibody, V domains shown) VH: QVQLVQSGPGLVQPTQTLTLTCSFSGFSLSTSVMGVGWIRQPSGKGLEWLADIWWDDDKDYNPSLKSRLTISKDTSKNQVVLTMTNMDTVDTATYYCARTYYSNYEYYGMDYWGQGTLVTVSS VL: DIVMTQSPDSLAVSLGERATINCRSAQTIILSNGNTYLEWYQQKPGQPPKLLIYKVSNRFSGVPDRFSGSGSGTDFTLTISSLQAEDVAVYYCFQGSHVPFTFGSGTKLEIKR | 1.03
2) hGPN18-2_H2L3 VL I30A (antibody, V domains shown) VH: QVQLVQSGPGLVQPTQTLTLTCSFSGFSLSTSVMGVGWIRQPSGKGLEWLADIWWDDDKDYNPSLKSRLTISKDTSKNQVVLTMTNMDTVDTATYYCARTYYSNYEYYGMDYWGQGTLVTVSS VL: DIVMTQSPDSLAVSLGERATINCRSSQTIALSNGNTYLEWYQQKPGQPPKLLIYKVSNRFSGVPDRFSGSGSGTDFTLTISSLQAEDVAVYYCFQGSHVPFTFGSGTKLEIKR | 1
3) hGPN18-2_H2L3 VL G96A (antibody, V domains shown) VH: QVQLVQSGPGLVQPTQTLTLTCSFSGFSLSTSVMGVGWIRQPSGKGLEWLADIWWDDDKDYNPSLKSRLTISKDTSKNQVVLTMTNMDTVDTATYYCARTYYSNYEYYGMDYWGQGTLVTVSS VL: DIVMTQSPDSLAVSLGERATINCRSSQTIILSNGNTYLEWYQQKPGQPPKLLIYKVSNRFSGVPDRFSGSGSGTDFTLTISSLQAEDVAVYYCFQASHVPFTFGSGTKLEIKR | 0.91
4) hGPN18-2_H2L3 VL S25A (antibody, V domains shown) VH: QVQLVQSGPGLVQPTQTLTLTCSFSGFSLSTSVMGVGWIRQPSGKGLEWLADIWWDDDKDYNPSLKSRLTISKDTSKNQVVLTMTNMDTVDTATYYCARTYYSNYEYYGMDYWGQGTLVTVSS VL: DIVMTQSPDSLAVSLGERATINCRASQTIILSNGNTYLEWYQQKPGQPPKLLIYKVSNRFSGVPDRFSGSGSGTDFTLTISSLQAEDVAVYYCFQGSHVPFTFGSGTKLEIKR | 1.01
5) hGPN18-2_H2L3 VL F94A (antibody, V domains shown) VH: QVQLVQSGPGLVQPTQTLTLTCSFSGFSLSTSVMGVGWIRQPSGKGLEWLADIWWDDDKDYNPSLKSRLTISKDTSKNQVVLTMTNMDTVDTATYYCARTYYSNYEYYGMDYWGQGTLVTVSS VL: DIVMTQSPDSLAVSLGERATINCRSSQTIILSNGNTYLEWYQQKPGQPPKLLIYKVSNRFSGVPDRFSGSGSGTDFTLTISSLQAEDVAVYYCAQGSHVPFTFGSGTKLEIKR | 0.07
6) hGPN18-2_H2L3 VL F101A (antibody, V domains shown) VH: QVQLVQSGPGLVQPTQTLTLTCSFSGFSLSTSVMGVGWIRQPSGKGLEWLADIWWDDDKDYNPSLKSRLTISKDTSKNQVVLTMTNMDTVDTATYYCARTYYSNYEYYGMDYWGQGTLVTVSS VL: DIVMTQSPDSLAVSLGERATINCRSSQTIILSNGNTYLEWYQQKPGQPPKLLIYKVSNRFSGVPDRFSGSGSGTDFTLTISSLQAEDVAVYYCFQGSHVPATFGSGTKLEIKR | 0.69

Report Relative binding activity for hGPN18-2_H2L3 VL N33A (antibody, V domains shown) VH: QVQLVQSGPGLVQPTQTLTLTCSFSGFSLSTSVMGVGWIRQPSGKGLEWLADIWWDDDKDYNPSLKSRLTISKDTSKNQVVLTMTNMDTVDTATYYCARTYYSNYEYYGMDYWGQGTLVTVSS VL: DIVMTQSPDSLAVSLGERATINCRSSQTIILSAGNTYLEWYQQKPGQPPKLLIYKVSNRFSGVPDRFSGSGSGTDFTLTISSLQAEDVAVYYCFQGSHVPFTFGSGTKLEIKR
0.82

Look up and state reported Relative binding activity for hGPN18-2_H2L3 VL T102A (antibody, V domains shown) VH: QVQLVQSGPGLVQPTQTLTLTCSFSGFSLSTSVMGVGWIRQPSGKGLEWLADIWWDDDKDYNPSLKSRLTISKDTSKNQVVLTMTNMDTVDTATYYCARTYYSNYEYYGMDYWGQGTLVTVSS VL: DIVMTQSPDSLAVSLGERATINCRSSQTIILSNGNTYLEWYQQKPGQPPKLLIYKVSNRFSGVPDRFSGSGSGTDFTLTISSLQAEDVAVYYCFQGSHVPFAFGSGTKLEIKR
0.81

Quote Relative binding activity reported for hGPN18-2_H2L3 VL V99A (antibody, V domains shown) VH: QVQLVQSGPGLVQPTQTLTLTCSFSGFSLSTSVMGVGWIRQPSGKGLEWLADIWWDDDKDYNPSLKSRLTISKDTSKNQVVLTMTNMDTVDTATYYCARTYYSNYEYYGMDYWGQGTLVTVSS VL: DIVMTQSPDSLAVSLGERATINCRSSQTIILSNGNTYLEWYQQKPGQPPKLLIYKVSNRFSGVPDRFSGSGSGTDFTLTISSLQAEDVAVYYCFQGSHAPFTFGSGTKLEIKR please.
0.81

Give the value of Relative binding activity reported for the following: hGPN18-2_H2L3 VL H98A (antibody, V domains shown) VH: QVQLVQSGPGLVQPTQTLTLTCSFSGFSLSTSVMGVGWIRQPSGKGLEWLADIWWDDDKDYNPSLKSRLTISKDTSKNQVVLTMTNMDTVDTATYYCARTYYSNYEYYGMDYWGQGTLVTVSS VL: DIVMTQSPDSLAVSLGERATINCRSSQTIILSNGNTYLEWYQQKPGQPPKLLIYKVSNRFSGVPDRFSGSGSGTDFTLTISSLQAEDVAVYYCFQGSAVPFTFGSGTKLEIKR
0.8
